# System: E. coli TESEC Mtb Alr
# Assay info: growth (OD600 after 10 h); higher = more growth (less inhibition)
# Condition description: arabinose 10000000 nM; compound 0.1 mM; raw OD600 reference: median of DMSO wells 0.146, cell-free background 0.041
Where a name gives a salt, the structure may show the parent alone.
Listing of entries alongside the reported growth.

Examples with answers:
[in] Which growth is listed for CC(=O)O[C@]1(C(C)=O)CC[C@H]2[C@@H]3C=C(C)C4=CC(=O)CC[C@@H]4[C@H]3CC[C@@]21C [Nomegestrol acetate] ?
[out] 0.0997

[in] Which growth is listed for CC(=O)CC(c1ccccc1)c1c(O)c2ccccc2oc1=O (stereo not drawn) ?
[out] 0.126

Next item in the queue.
[in] Which growth is listed for CC1CC(OC(=O)C(O)c2ccccc2)CC(C)(C)N1C (stereo not drawn) [Eucatropine hydrochloride] ?
[out] 0.156

* * *

# Test system: E. coli TESEC Alr+ wild-type control
# Assay info: growth (OD600 after 10 h); higher = more growth (less inhibition)
# Condition description: compound 0.1 mM; raw OD600 reference: median of DMSO wells 0.49, cell-free background 0.052
Where a name gives a salt, the structure may show the parent alone.
Readout type: growth
Just the number, please.

Examples with answers:
[in] Which growth is listed for `Cc1cccn2c(=O)c(-c3nnn[nH]3)cnc12` ?
[out] 0.49

[in] Which growth is listed for CCN(CC)C(=O)C1(c2ccccc2)CC1CN (stereo not drawn) [Milnacipran hydrochloride] ?
[out] 0.547

[in] Which growth is listed for Nc1nc2ccc(OC(F)(F)F)cc2s1 [Riluzole hydrochloride] ?
[out] 0.439

---
[in] Which growth is listed for NC(=O)N1c2ccccc2CC(=O)c2ccccc21 [Oxcarbazepine] ?
[out] 0.601

[in] Which growth is listed for `CN1C(=O)OC(C)(C)C1=O` ?
[out] 0.553

[in] Which growth is listed for COc1cc(C(=O)OCCCN2CCCN(CCCOC(=O)c3cc(OC)c(OC)c(OC)c3)CC2)cc(OC)c1OC [Dilazep dihydrochloride] ?
[out] 0.416

[in] Which growth is listed for COc1cccc(N(C)C(=S)Oc2ccc3c(c2)CCCC3)n1 [Liranaftate] ?
[out] 0.385

[in] Which growth is listed for Cc1ccccc1N1C(=O)c2cc(S(N)(=O)=O)c(Cl)cc2NC1C (stereo not drawn) ?
[out] 0.481

[in] Which growth is listed for CC(=O)OCC(=O)[C@@]1(O)[C@H](C)C[C@H]2[C@@H]3CCC4=CC(=O)C=C[C@]4(C)[C@@]3(F)[C@@H](O)C[C@@]21C [Dexamethasone acetate] ?
[out] 0.477

[in] Which growth is listed for c1ccc(-c2ccc(C(c3ccccc3)n3ccnc3)cc2)cc1 (stereo not drawn) ?
[out] 0.0548

[in] Which growth is listed for CN(C)CCCN1c2ccccc2CCc2ccc(Cl)cc21 [Clomipramine hydrochloride] ?
[out] 0.202

[in] Which growth is listed for `CC(=O)OC[C@H]1O[C@@H]([S-])[C@H](OC(C)=O)[C@@H](OC(C)=O)[C@@H]1OC(C)=O.CCP(CC)CC.[Au+]` ?
[out] 0.059

[in] Which growth is listed for `c1ccc(CNc2ncnc3nc[nH]c23)cc1` ?
[out] 0.509

[in] Which growth is listed for O=C(O)CNC(=O)C(CS)Cc1ccccc1 (stereo not drawn) ?
[out] 0.475

[in] Which growth is listed for O=C1C(O)=C(O)C(=O)C(O)=C1O [Tetrahydroxy-1,4-quinone hydrate] ?
[out] 0.5

meta.source: the supplement of paper PMC9262897
